The origin of these recorded values is the supplement of paper PMC6757056.

Quick list: normalized RNA/DNA level with ligand (log10) per entry.
B1: library; a variant is named by its letters at N, in order (parent)
chain: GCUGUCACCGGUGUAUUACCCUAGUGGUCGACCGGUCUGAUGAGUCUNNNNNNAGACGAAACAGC

- Variants of: B1
- Measurement Notes: normalized RNA/DNA level with ligand (relative to sTRSVctl = 100) (log10 (% of sTRSVctl)); ligand: hypoxanthine (xanthine aptamer); higher = less ribozyme self-cleavage, higher mRNA level
- Applied Conditions: ligand concentration (+) RNA-Seq: 5 mM, HEK293T, reporter: mCherry (pCS4076), ligand present: yes
Readout Name: normalized RNA/DNA level with ligand (log10)

• AUGGGC = 1.94
• GCGACC = 1.88
• UCGCAG = 1.92
• GUACGG = 1.89
• GCAAGU = 1.93
• UCUGUG = 1.91
• UGCGUU = 1.99
• CGAAAG = 1.94
• CUUCUA = 1.97
• UUAGAA = 1.89
• GUUCGC = 1.97
• AGCACG = 1.87
• CCCGGA = 1.97
• ACAACA = 1.92
• CCGGUG = 1.87
• ACGAGG = 1.41
• AGGAGG = 1.58
• CAAGGU = 1.88
• GCAGCA = 1.98
• GCCUAC = 1.95
• UCACAU = 1.93
• AUUUGA = 1.91
• CAGCUU = 1.95
• CGCACG = 1.95
• AUUGCG = 1.86
• UAUGAA = 1.91
• ACUCUA = 1.95
• GUGCGU = 1.97
• CUUUAA = 1.92
• ACAAGU = 1.88
• UGCGUC = 1.99
• UGAUGG = 1.92
• AGGGGG = 1.88
• ACUCCG = 1.89
• GCGAUU = 1.88
• UGGCAA = 1.92
• GCAAUC = 1.98
• UUGUUA = 1.98
• UUCUUA = 1.95
• UUACAG = 1.92
• CUUCGU = 2.03
• AAGGGA = 1.83
• CUGGGC = 1.98
• CCUACG = 1.94
• AUGGCA = 1.92
• CUGGAG = 1.86
